biological target: HUR (Homo sapiens, UniProt Q15717); construct: GFP-tagged, HEK293FT lysate; assay: MST with GFP-tagged protein in cell lysate
Sequence (Q15717 2-326): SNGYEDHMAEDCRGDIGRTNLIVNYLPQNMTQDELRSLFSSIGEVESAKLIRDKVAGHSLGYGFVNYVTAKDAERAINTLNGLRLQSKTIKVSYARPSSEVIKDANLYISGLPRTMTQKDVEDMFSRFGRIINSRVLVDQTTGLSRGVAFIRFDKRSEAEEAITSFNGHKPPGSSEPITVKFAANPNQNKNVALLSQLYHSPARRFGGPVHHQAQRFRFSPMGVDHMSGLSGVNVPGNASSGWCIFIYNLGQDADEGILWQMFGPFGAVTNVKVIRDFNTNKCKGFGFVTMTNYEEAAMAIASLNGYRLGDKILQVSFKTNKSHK
Measurement Name: Kd (µM)
Numbers only, in µM.

[Q] Returns the measured Kd for the input compound. Input: COc1cc2c(cc1OC)-c1cc3ccc(OC)c(OC)c3c[n+]1CC2 [palmatine]
[A] 33.5

====

target: LIN28A (Homo sapiens, UniProt Q9H9Z2); construct: GFP-tagged, HEK293FT lysate; experiment: MST with GFP-tagged protein in cell lysate
Sequence (Q9H9Z2 2-209): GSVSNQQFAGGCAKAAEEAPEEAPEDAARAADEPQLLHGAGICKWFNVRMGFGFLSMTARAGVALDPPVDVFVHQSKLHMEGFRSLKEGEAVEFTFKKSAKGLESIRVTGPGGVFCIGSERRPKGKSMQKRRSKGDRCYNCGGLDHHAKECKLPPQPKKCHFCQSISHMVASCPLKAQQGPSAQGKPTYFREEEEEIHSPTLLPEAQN
Measurement Name: Kd
The reply should consist of the numeric value with the unit placed after it.

[Q] Fill blank: measured Kd of the molecule COc1cc2c(cc1OC)-c1cc3ccc(OC)c(OC)c3c[n+]1CC2 [palmatine] is ____.
[A] 49.6 µM
